- Test system: EFO-27 human ovarian cancer cells (LHRH binding sites)
- TEST_NAME: Direct binding/uptake of 177Lu-labeled LHRH-II analogs to EFO-27 cells
- CONDITION_DESCRIPTION: 177Lu-labeled analog, single concentration
Would you kindly list 177Lu-LHRH II Direct binding % Bound for each of these compounds?
One number for each entry, in %.

| SAMPLE_SMILES | 177Lu-LHRH II Direct binding % Bound / % |
| --- | --- |
| N=C(N)NCCC[C@H](NC(=O)[C@@H](Cc1ccc2ccccc2c1)NC(=O)CN1CCN(CC(=O)O)CCN(CC(=O)O)CCN(CC(=O)O)CC1)C(=O)N[C@@H](Cc1c[nH]c2ccccc12)C(=O)N[C@@H](CO)C(=O)N[C@@H](Cc1c[nH]cn1)C(=O)N[C@H](CCCNC(=N)N)C(=O)N[C@@H](Cc1c[nH]c2ccccc12)C(=O)N[C@@H](Cc1ccc(C(=O)c2ccccc2)cc1)C(=O)N1CCC[C@H]1C(=O)NCCOCCN | 23.5 |
| N=C(N)NCCC[C@H](NC(=O)[C@@H](Cc1ccc2ccccc2c1)NC(=O)CN1CCN(CC(=O)O)CCN(CC(=O)O)CCN(CC(=O)O)CC1)C(=O)N[C@@H](Cc1c[nH]c2ccccc12)C(=O)N[C@@H](CO)C(=O)N[C@@H](Cc1c[nH]cn1)C(=O)N[C@H](CCCNC(=N)N)C(=O)N[C@@H](Cc1c[nH]c2ccccc12)C(=O)N[C@@H](Cc1ccc(C(=O)c2ccccc2)cc1)C(=O)N1CCC[C@H]1C(=O)NNC(N)=O | 18.80 |
| CN(CC(=O)N[C@@H](Cc1c[nH]cn1)C(=O)N[C@@H](Cc1c[nH]c2ccccc12)C(=O)N[C@@H](CO)C(=O)N[C@@H](Cc1c[nH]cn1)C(=O)N[C@H](CCCNC(=N)N)C(=O)N[C@@H](Cc1c[nH]c2ccccc12)C(=O)N[C@@H](Cc1ccc(C(=O)c2ccccc2)cc1)C(=O)N1CCC[C@H]1C(=O)NNC(N)=O)C(=O)CN1CCN(CC(=O)O)CCN(CC(=O)O)CCN(CC(=O)O)CC1 | 1.8 |

Would you be so kind as to report 177Lu-LHRH II Direct binding % Bound for each listed record?
1. N=C(N)NCCC[C@@H](NC(=O)[C@H](Cc1c[nH]cn1)NC(=O)[C@H](CO)NC(=O)[C@H](Cc1c[nH]c2ccccc12)NC(=O)[C@H](Cc1c[nH]cn1)NC(=O)CN(Cc1ccccc1)C(=O)CNC(=O)CN1CCN(CC(=O)O)CCN(CC(=O)O)CCN(CC(=O)O)CC1)C(=O)N[C@@H](Cc1c[nH]c2ccccc12)C(=O)N[C@@H](Cc1ccc(C(=O)c2ccccc2)cc1)C(=O)N1CCC[C@H]1C(=O)NNC(N)=O
2. N=C(N)NCCC[C@@H](NC(=O)[C@H](Cc1c[nH]cn1)NC(=O)[C@H](CO)NC(=O)[C@H](Cc1c[nH]c2ccccc12)NC(=O)[C@H](Cc1c[nH]cn1)NC(=O)[C@@H](Cc1ccc2ccccc2c1)NC(=O)CN1CCN(CC(=O)O)CCN(CC(=O)O)CCN(CC(=O)O)CC1)C(=O)N[C@@H](Cc1c[nH]c2ccccc12)C(=O)N[C@@H](Cc1ccc(C(=O)c2ccccc2)cc1)C(=O)N1CCC[C@H]1C(=O)NNC(N)=O
3. N=C(N)NCCC[C@@H](NC(=O)[C@H](Cc1c[nH]cn1)NC(=O)[C@H](CO)NC(=O)[C@H](Cc1c[nH]c2ccccc12)NC(=O)[C@H](Cc1c[nH]cn1)NC(=O)CN(CCc1ccc(O)cc1)C(=O)CNC(=O)CN1CCN(CC(=O)O)CCN(CC(=O)O)CCN(CC(=O)O)CC1)C(=O)N[C@@H](Cc1c[nH]c2ccccc12)C(=O)N[C@@H](Cc1ccc(C(=O)c2ccccc2)cc1)C(=O)N1CCC[C@H]1C(=O)NNC(N)=O

1.28
13.25
4.64
